FYI, the data here is from patent EP4483954A1.

Target protein (sequence): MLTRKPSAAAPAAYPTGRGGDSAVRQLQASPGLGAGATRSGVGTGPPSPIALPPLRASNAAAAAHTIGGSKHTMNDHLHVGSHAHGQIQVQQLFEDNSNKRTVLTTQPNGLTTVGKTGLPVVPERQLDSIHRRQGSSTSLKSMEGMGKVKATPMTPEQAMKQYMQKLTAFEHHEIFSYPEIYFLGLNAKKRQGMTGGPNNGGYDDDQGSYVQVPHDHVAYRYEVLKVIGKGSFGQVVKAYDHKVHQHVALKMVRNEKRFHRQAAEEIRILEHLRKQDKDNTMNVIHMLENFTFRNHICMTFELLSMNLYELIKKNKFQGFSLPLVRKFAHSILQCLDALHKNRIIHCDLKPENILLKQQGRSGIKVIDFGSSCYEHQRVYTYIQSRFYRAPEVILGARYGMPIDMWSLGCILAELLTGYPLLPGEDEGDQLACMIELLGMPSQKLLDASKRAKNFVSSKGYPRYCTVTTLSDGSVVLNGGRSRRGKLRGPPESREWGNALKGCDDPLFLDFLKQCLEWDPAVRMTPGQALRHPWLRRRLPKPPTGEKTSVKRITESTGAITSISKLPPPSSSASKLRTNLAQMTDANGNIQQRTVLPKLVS
pIC50: −log10 of the molar value.
readout.name: pIC50

Example entries and their recorded answers appear below.
| compound | pIC50 |
| --- | --- |
| Cc1cc(-c2cnn(C)c2)nc2c(-c3ccncc3)csc12 [Preparative Example 157] | 5.00 to 5.52 |
| c1cc(-c2csc3ccc(Nc4cc[nH]n4)nc23)ccn1 [Preparative Example 101] | 5.52 to 6.30 |

Find the recorded pIC50 belonging to Cn1cc(-c2ccc3scc(-c4ccc5ncnn5c4)c3n2)cn1 [Preparative Example 53] and report it.
6.30 to 7.00

Would you kindly repeat that for Cn1ccc(-c2ccc3scc(-c4ccncc4)c3n2)n1 [Preparative Example 86] ?
5.00 to 5.52

Would you kindly repeat that for Cc1cc2scc(-c3ccncc3)c2nc1-c1ccn(C)n1 [Preparative Example 151] ?
5.00 to 5.52

Would you kindly repeat that for Cn1cc(-c2ccc3scc(-c4ccncc4)c3n2)nn1 [Preparative Example 93] ?
5.00 to 5.52

Would you kindly repeat that for Cn1cc(-c2ccc3scc(-c4ccncc4)c3n2)c(N)n1 [Preparative Example 84] ?
5.00 to 5.52

Would you kindly repeat that for Cn1cncc1-c1ccc2scc(-c3ccncc3)c2n1 [Preparative Example 91] ?
5.52 to 6.30

Would you kindly repeat that for Cn1cc(-c2cc(Cl)c3scc(-c4ccncc4)c3n2)cn1 [Preparative Example 162] ?
5.00 to 5.52

* * *

Let's go through some recorded IC50 values for PIM1 (h) (Homo sapiens, UniProt P11309) together.

Example entries and their recorded answers appear below.
| input.smiles | target | readout.name | result |
| --- | --- | --- | --- |
| COc1cc(-c2ccn(C)n2)nc2c(-c3ccncc3)csc12 | PIM1 (h) (Homo sapiens, UniProt P11309) | IC50 | 3 to 10 µM |
| Cc1cc2scc(-c3ccncc3)c2nc1-c1ccn(C)n1 | PIM1 (h) (Homo sapiens, UniProt P11309) | IC50 | 3 to 10 µM |
| Cn1cc(-c2ccc3scc(-c4ccccc4)c3n2)cn1 | PIM1 (h) (Homo sapiens, UniProt P11309) | IC50 | 0.5 to 3 µM |
| Fc1cc(-c2ccc3scc(-c4ccccc4)c3n2)cc(F)c1F | PIM1 (h) (Homo sapiens, UniProt P11309) | IC50 | 3 to 10 µM |
| Cn1cc(-c2csc3ccc(Oc4ccccc4)nc23)cn1 | PIM1 (h) (Homo sapiens, UniProt P11309) | IC50 | 0.5 to 3 µM |
| Cn1nccc1-c1ccc2scc(-c3ccncc3)c2n1 | PIM1 (h) (Homo sapiens, UniProt P11309) | IC50 | 3 to 10 µM |

Find the recorded IC50 belonging to Cn1ncc(-c2ccc3scc(-c4ccncc4)c3n2)c1CC1CC1 and report it.
0.02 to 0.099 µM

Would you kindly repeat that for c1ccc(-c2csc3ccc(-c4ccoc4)nc23)cc1 ?
3 to 10 µM

Would you kindly repeat that for Cn1cc(-c2ccc3scc(-c4cnn(C)c4)c3n2)cn1 ?
0.1 to 0.499 µM

* * *

Readings of IC50 for the listed molecules
Molecular target: Haspin (h) (Homo sapiens, UniProt Q8TF76)
Sequence (Q8TF76 1-798): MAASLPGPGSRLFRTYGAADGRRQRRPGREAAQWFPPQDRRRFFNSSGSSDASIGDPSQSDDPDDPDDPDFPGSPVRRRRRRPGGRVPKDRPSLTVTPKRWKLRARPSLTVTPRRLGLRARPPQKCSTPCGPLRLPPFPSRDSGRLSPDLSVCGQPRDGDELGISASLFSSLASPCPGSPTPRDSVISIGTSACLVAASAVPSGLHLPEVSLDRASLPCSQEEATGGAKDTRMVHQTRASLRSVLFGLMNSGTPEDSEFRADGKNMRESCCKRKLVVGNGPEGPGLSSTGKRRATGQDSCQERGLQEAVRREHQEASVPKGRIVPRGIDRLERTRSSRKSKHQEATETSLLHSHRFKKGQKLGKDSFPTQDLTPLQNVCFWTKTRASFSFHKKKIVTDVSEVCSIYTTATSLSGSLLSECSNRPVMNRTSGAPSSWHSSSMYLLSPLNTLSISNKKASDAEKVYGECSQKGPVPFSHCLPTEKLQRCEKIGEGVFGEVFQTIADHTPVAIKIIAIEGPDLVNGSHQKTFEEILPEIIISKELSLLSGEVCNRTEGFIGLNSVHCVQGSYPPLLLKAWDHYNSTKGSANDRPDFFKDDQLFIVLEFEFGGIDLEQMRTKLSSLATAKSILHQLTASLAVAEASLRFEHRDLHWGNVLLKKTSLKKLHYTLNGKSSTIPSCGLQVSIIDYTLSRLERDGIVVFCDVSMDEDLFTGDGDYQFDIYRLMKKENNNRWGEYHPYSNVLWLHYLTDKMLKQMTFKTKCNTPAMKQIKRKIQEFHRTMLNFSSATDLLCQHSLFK

Example entries and their recorded answers appear below.
| input.smiles | result |
| --- | --- |
| Cn1cc(-c2ccc3scc(-c4ccnc(C#N)c4)c3n2)cn1 | 100 to 499 nM |
| c1cc(-c2csc3ccc(Nc4cn[nH]c4)nc23)ccn1 | 20 to 99 nM |
| c1cc(-c2csc3ccc(-c4ccns4)nc23)ccn1 | 500 to 3000 nM |
| Cn1cc(-c2ccc3scc(-c4ccnc(NC(=O)OC(C)(C)C)c4)c3n2)cn1 | 100 to 499 nM |

Find the recorded IC50 belonging to Cn1ccc(-c2ccc3scc(-c4ccncc4)c3n2)n1 and report it.
20 to 99 nM

Would you kindly repeat that for Cn1cc(-c2cc(Cl)c3scc(-c4ccncc4)c3n2)cn1 ?
500 to 3000 nM

Would you kindly repeat that for Cn1cc(-c2ccc3scc(-c4ccccc4)c3n2)cn1 ?
100 to 499 nM

* * *

Sequence of the target: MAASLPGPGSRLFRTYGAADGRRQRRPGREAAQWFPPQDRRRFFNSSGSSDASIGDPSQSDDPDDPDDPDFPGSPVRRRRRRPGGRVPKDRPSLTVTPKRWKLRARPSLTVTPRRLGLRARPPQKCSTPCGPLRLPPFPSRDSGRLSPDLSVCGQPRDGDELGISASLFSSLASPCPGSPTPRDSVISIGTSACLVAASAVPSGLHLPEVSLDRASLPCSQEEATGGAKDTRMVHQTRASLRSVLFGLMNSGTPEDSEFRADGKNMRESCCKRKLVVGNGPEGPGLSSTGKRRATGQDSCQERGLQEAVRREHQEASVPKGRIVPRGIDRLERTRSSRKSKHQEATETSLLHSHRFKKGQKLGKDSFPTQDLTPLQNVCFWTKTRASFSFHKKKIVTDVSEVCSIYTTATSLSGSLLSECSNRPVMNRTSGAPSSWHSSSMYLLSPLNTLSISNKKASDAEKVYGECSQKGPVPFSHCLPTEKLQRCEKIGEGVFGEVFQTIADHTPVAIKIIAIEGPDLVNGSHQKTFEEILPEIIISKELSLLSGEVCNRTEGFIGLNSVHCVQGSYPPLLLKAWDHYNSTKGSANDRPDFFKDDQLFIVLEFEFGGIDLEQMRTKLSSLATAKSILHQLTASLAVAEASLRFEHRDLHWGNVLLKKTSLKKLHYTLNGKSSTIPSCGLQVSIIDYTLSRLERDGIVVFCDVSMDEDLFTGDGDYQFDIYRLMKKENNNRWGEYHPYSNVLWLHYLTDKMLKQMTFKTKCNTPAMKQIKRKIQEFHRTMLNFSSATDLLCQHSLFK
Readings of IC50 for the listed compounds

Example entries and their recorded answers appear below.
| input.smiles | result |
| --- | --- |
| Cc1cnccc1-c1csc2ccc(-c3cnn(C)c3)nc12 | 3 to 10 µM |
| Cn1cc(-c2ccc3scc(-c4ccncc4)c3n2)c(NC(=O)OC(C)(C)C)n1 | 3 to 10 µM |

Kindly review the next compound as well.
Find the recorded IC50 belonging to Cn1cc(-c2ccc3scc(-c4ccc5n[nH]cc5c4)c3n2)cn1 and report it.
0.1 to 0.499 µM
